TGI values by entry
Test system: RPMI-8226 leukemia
Test: NCI tumour cell line growth inhibition, 48 h

Example cases with answers are listed next.
CC(C)(CNC(=O)/C(Cl)=C(/Cl)C(=O)O)CNC(=O)/C(Cl)=C(/Cl)C(=O)O = 76.3 µM
CC(C)(C)/C(O)=C\c1nc2ccc(C(F)(F)F)cc2[nH]c1=O = > 100 µM
COc1ccc2cc(C#Cc3ccc(-n4c(/C=C/c5cc(OC)c(OC)c(OC)c5)nc5ccccc5c4=O)c(C)c3)ccc2c1 = > 100 µM

Quick one: give measured TGI for [N-]=[N+]=Nc1cc(=O)n(-c2ccccc2)c2ccccc12
> 100 µM

Quick one: give measured TGI for CCOC(=O)CC[C@H](NC(=O)c1[nH]cnc1/N=N/N(C)C)C(=O)OCC
> 100 µM

* * *

Test system: COLO 205 colon
Experiment: NCI tumour cell line growth inhibition, 48 h
GI50 values by entry

Quick one: give measured GI50 for O=C(Nc1ncc(Cc2ccccc2)s1)c1sc2ccccc2c1Cl
2.16 µM

Quick one: give measured GI50 for CC[C@H](C)[C@H](NC(=O)c1ccccn1)C(=O)N(C)[C@H](C[C@@H](OC(C)=O)c1nc(C(=O)N[C@@H](Cc2ccccc2)C[C@H](C)C(=O)OC)cs1)C(C)C
16.8 µM

Quick one: give measured GI50 for O=C(c1ccco1)c1nc2ccc(Cl)cc2[n+]([O-])c1C(F)(F)F
> 100 µM

Quick one: give measured GI50 for COc1ccc(-c2cn[nH]c2-c2cc(OC)c(OC)c(OC)c2)cc1OCc1ccccc1
4.58 µM

* * *

Tested on: SW-620 colon
Test: NCI tumour cell line growth inhibition, 48 h; in the data active means GI50 below about 0.43 µM; inactive means the rest
Returns: one label drawn from active, inactive

C[CH2][Sn]([CH2]C)([O]C(=O)c1ccccc1F)[O]C(=O)c1ccccc1F = inactive
Nc1ccc(S(=O)(=O)c2ccc(N)cc2)cc1 = inactive
C=CC(=O)N1CCN(CCCn2c(=O)c(-c3c(Cl)c(OC)cc(OC)c3Cl)cc3cnc(NC)nc32)CC1 = inactive
CSc1nc(-c2cc3ccccc3o2)cc(-c2ccc(Cl)cc2)c1C#N = inactive
COc1cccc2[nH]c3c4c(c5c(c3c12)C(=O)N(CN1CCN(C)CC1)C5=O)CCC4 = inactive
C1C[OH+]CC[OH+]CC[OH+]CC[OH+]CC[OH+]CC[OH+]1.[Cl-].[V] = inactive
O=C(Cc1n[nH]c(=O)c2ccccc12)OCc1c(Cl)cccc1Cl = inactive
COc1cccc(C2=C(c3cn(C)c4ccc(Cl)cc34)C(=O)NC2=O)c1 = inactive
COC1=C(OC)C(=O)C(CCCCCCCCCC[P+](c2ccccc2)(c2ccccc2)c2ccccc2)=C(C)C1=O = active

Consider the additional compound presented here.
// outcome(item) with item = OCCCCC#Cc1ccccc1C#Cc1ccccn1
inactive

* * *

TGI values by entry
Tested on: M14 melanoma
Assay: NCI tumour cell line growth inhibition, 48 h

Quick one: give measured TGI for CCNCCCNc1c2ccccc2nc2ccccc12
0.95 µM

Quick one: give measured TGI for COc1cccc(C2=C(c3cn(C)c4ccc(Cl)cc34)C(=O)NC2=O)c1
> 25 µM

Quick one: give measured TGI for C=CC(=O)C#CC#CC/C=C\CCCCCCC
> 20.6 µM

Quick one: give measured TGI for CC(C)(C)OC(=O)NCCC1SC2C=CC1C2 (stereo unspecified)
> 100 µM

Quick one: give measured TGI for Cc1nnc2n1-c1ccccc1-c1[nH]c3ccccc3c1C2
> 100 µM

Quick one: give measured TGI for C[CH2][Sn]([CH2]C)([O]C(=O)c1ccccc1F)[O]C(=O)c1ccccc1F
56.8 µM

* * *

System: RXF 393 renal
Assay: NCI tumour cell line growth inhibition, 48 h
metric: TGI (µM)
API: value field is a number in µM; no unit string.

Example cases with answers are listed next.
CCC(=O)Nc1ccc(NCC(=O)Nc2ccc(Cl)cc2)cc1 = 35.6
O=C1/C=C/[C@@H](O)[C@@H]2C[C@@H](O)C[C@H]2/C=C/CCC[C@H](CCOCc2ccccc2)O1 = 0.0436
Oc1c(Br)cc(Br)c2ccc(Cn3cc(-c4ccc(C(F)(F)F)cc4)nn3)nc12 = 2.17

Now let's try a different one.
Quick one: give measured TGI for COC1=C(C)C(=O)C2=C(C1=O)[C@@H]1[C@@H]3Cc4c(OC(=O)CO)c(C)c(OC)c(O)c4[C@H](CNC(=O)C(C)=O)N3[C@@H](C#N)[C@H](C2)N1C
0.0392

* * *

Tested on: HOP-92 NSCLC
Test: NCI tumour cell line growth inhibition, 48 h
metric: TGI (µM)
API: value field is a number in µM; no unit string.

Example cases with answers are listed next.
C=C(Cl)C(Cl)(CBr)CCCC(C)(C)Cl (stereo not drawn) = 6.33
O=c1cc(-c2ccc3ccccc3c2)[nH]c2ncc(Cl)cc12 = 38.1
Cc1cc(C(=O)NCCN(C)C)c2nc3ccccc3cc2c1 = 5.27

Now let's try a different one.
Quick one: give measured TGI for COC(=O)c1oc([N+](=O)[O-])c(Cl)c1Cl
39.3

* * *

Test system: NCI-H460 lung
Returns: one label drawn from label 1 (active), label 0 (inactive)

COC1=C(OC)C(=O)C(CCCCCCCCCC[P+](c2ccccc2)(c2ccccc2)c2ccccc2)=C(C)C1=O = label 1
COc1ccc(-c2cn[nH]c2-c2cc(OC)c(OC)c(OC)c2)cc1OCc1ccccc1 = label 0
CCOc1cc(F)c([N+](=O)[O-])cc1[N+](=O)[O-] = label 0
C=CC(=O)N1CCN(CCCn2c(=O)c(-c3c(Cl)c(OC)cc(OC)c3Cl)cc3cnc(NC)nc32)CC1 = label 0

// outcome(item) with item = OCCCCC#Cc1ccccc1C#Cc1ccccn1
label 0

* * *

Tested on: MDA-MB-231 breast
Test: NCI tumour cell line growth inhibition, 48 h; in the data active = GI50 below about 0.43 µM; inactive = the rest
Returns: one label drawn from active, inactive

Past entries and their recorded results:
Nc1n[nH]c2cccc(C#Cc3cccc(NC(=O)c4ccc(N5CCOCC5)c(C(F)(F)F)c4)c3)c12 = inactive
NC(N)=NN=C(c1ccccc1)c1ccccc1 = inactive
N#CC1(Nc2ccc(Br)cc2)CCCC1 = inactive

// outcome(item) with item = O=C(c1ccco1)c1nc2ccc(Cl)cc2[n+]([O-])c1C(F)(F)F
inactive

* * *

Test system: SK-MEL-5 melanoma
Assay: NCI tumour cell line growth inhibition, 48 h
metric: TGI

Nc1n[nH]c2cccc(C#Cc3cccc(NC(=O)c4ccc(N5CCOCC5)c(C(F)(F)F)c4)c3)c12 = 3 µM
CCOC(=O)C(COS(C)(=O)=O)(COS(C)(=O)=O)C(=O)OCC = > 100 µM
O=S(=O)(c1ccc(Cl)cc1)c1ccccc1C1=NCCN1 = > 100 µM

Now let's try a different one.
Output reported TGI of the compound COc1cc(C(c2c(O)c3ccccc3oc2=O)c2c(O)c3ccccc3oc2=O)ccc1O on SK-MEL-5 melanoma.
30.3 µM

* * *

GI50 values by entry
System: SF-539 CNS
Assay: NCI tumour cell line growth inhibition, 48 h
Where a SMILES comes first, the peptide text is derived from it. [ ]: non-standard residue; d: D form. The star is where a group is joined. Dolaproine = CO[C@@H]([C@@H]1CCCN1)[C@@H](C)C(=O)O; Dil = CC[C@H](C)[C@H](NC)[C@@H](CC(=O)O)OC; X2 = C[C@@H](N*)[C@@H](O)c1ccccc1; NMeV = CN[C@H](C(=O)O)C(C)C

Nc1n[nH]c2cccc(C#Cc3cccc(NC(=O)c4ccc(N5CCOCC5)c(C(F)(F)F)c4)c3)c12 = 0.31 µM
C1C[OH+]CC[OH+]CC[OH+]CC[OH+]CC[OH+]CC[OH+]1.[Cl-].[V] = 5.43 µM
CC[C@H](C)[C@@H]([C@@H](CC(=O)N1CCC[C@H]1[C@H](OC)[C@@H](C)C(=O)N[C@H](C)[C@@H](O)c1ccccc1)OC)N(C)C(=O)[C@@H](NC(=O)[C@@H](NC)C(C)C)C(C)C (H-[NMeV]V[Dil][Dolaproine]-X2) = < 0.005 µM
CCCCC(CCCCCC(CCCC)C1NC(C)Cc2cc(OC)c(OC)cc21)C1NC(C)Cc2cc(OC)c(OC)cc21 (stereo not given) = 1.76 µM

Now let's try a different one.
Quick one: give measured GI50 for OCCCCC#Cc1ccccc1C#Cc1ccccn1
17.8 µM

* * *

Tested on: SNB-75 CNS
Assay: NCI tumour cell line growth inhibition, 48 h; in the data active means GI50 below about 0.43 µM; inactive means the rest
Returns: one label drawn from class 1 (active), class 0 (inactive)

Past entries and their recorded results:
COc1cccc2c1C(=O)c1c(O)c3c(c(O)c1C2=O)C[C@@](O)(C(=O)CO)C[C@@H]3OC1CC2C(OCN3CN2COC2C(C)OC(O[C@H]4C[C@](O)(C(=O)CO)Cc5c(O)c6c(c(O)c54)C(=O)c4c(OC)cccc4C6=O)CC23)C(C)O1 (some centres not stated) = class 1
O=C1/C=C/[C@@H](O)[C@@H]2C[C@@H](O)C[C@H]2/C=C/CCC[C@H](CCOCc2ccccc2)O1 = class 1
Clc1ccc(C(Cn2ccnc2)OCc2ccsc2Cl)c(Cl)c1 (configuration not stated) = class 0
N#CC1(Nc2ccc(Br)cc2)CCCC1 = class 0
O=C(Nc1ncc(Cc2ccccc2)s1)c1sc2ccccc2c1Cl = class 1

// outcome(item) with item = Oc1c(Br)cc(Br)c2ccc(Cn3cc(-c4ccc(C(F)(F)F)cc4)nn3)nc12
class 0

// outcome(item) with item = S=C(S)NCCNC(=S)S.[Cu+2]
class 0
